# Tested on: in vitro micronucleus assay, mammalian cells
# assay.notes: In vitro micronucleus assay, summary data
The source made the active and inactive calls. The rule behind the calls is not given here.
Respond using exactly one of the listed classes: TRUE (active), FALSE (inactive)

A selection of reference data follows.
| molecule | class.label |
| --- | --- |
| CCc1cccc(C)c1N(C(=O)CCl)C(C)COC (stereo unspecified) | TRUE |
| NCP(=O)(O)O | FALSE |
| c1cc[n+]2c(c1)-c1cccc[n+]1CC2 | TRUE |
| CCOC(=O)C1=C[C@]2(CC)CCCN3CCc4c(n1c1ccccc41)[C@@H]32 | TRUE |
| [Cl][In]([Cl])[Cl] | TRUE |

Turning now to a further record.
### Prompt Name the outcome recorded for CCCCCCOc1ccc(O)cc1 in the assay.
### Response TRUE

Data origin, for the record: PubChem BioAssay AID2202557
